- assay method text: Pharmacokinetic evaluation of compounds in SD rats
- Format: in vivo, Sprague Dawley rats
- conditions used: male, Sprague-Dawley, rat, plasma, single intravenous injection and oral administration, read-out: Concentration integration AUC

>  <molecule>
Cn1cnc2c1c(=O)n(Cc1ccc(C(C)(O)C(F)(F)F)nc1)c(=O)n2C (stereo not shown) [Embodiment 28]

>  <AUC / µM·h>
51.2

$$$$
>  <molecule>
Cn1c(=O)n(CC2CCC(O)(C(F)(F)F)CC2)c(=O)c2c1ncn2CC1CC1 (single isomer, unassigned) [Embodiment 50 isomer 2]

>  <AUC / µM·h>
2.49

$$$$
>  <molecule>
Cn1cnc2c1c(=O)n(Cc1ccc(C(C)(O)C(F)(F)F)cc1)c(=O)n2C (stereo not shown) [Embodiment 27]

>  <AUC / µM·h>
11.4

$$$$
>  <molecule>
Cn1cnc2c1c(=O)n(CCCCC(C)(O)C(F)(F)F)c(=O)n2C (stereo not shown) [Embodiment 1]

>  <AUC / µM·h>
1.91

$$$$
>  <molecule>
Cn1c(=O)n(CC2CCC(C)(O)CC2)c(=O)c2c1ncn2CC1CC1 (single isomer, unassigned) [Embodiment 51 isomer 2]

>  <AUC / µM·h>
4.39

$$$$
>  <molecule>
CCC(O)(CC)CCCCn1c(=O)c2c(ncn2C)n(C)c1=O [Embodiment 2]

>  <AUC / µM·h>
0.902

$$$$
>  <molecule>
CC(C)Cn1cnc2c1c(=O)n(CC1CCC(O)(C(F)(F)F)CC1)c(=O)n2C (single isomer, unassigned) [Embodiment 58 isomer 2]

>  <AUC / µM·h>
2.49

$$$$
>  <molecule>
Cn1cnc2c1c(=O)n(CC1CCC(O)(C(F)(F)F)CC1)c(=O)n2C (single isomer, unassigned) [Embodiment 12 isomer 2]

>  <AUC / µM·h>
3.85

$$$$
>  <molecule>
Cn1c(=O)n(Cc2ccc(C(C)(O)C(F)(F)F)nc2)c(=O)c2c1ncn2CC1CC1 (stereo not shown) [Embodiment 55]

>  <AUC / µM·h>
17.8

$$$$
>  <molecule>
Cn1c(=O)n(CC2CCC(O)(C(F)(F)F)CC2)c(=O)c2c1ncn2CC(F)(F)F (single isomer, unassigned) [Embodiment 45 isomer 2]

>  <AUC / µM·h>
1.29

$$$$

###

Below, each entry is listed with its recorded IC50.
- subject of test: recombinant full-length PDE2A protein (Homo sapiens)
- Construct: Expression of recombinant full-length PDE2A protein in insect Sf9 cells; GST (N)
- Sequence (O00408 whole entry, species assumed): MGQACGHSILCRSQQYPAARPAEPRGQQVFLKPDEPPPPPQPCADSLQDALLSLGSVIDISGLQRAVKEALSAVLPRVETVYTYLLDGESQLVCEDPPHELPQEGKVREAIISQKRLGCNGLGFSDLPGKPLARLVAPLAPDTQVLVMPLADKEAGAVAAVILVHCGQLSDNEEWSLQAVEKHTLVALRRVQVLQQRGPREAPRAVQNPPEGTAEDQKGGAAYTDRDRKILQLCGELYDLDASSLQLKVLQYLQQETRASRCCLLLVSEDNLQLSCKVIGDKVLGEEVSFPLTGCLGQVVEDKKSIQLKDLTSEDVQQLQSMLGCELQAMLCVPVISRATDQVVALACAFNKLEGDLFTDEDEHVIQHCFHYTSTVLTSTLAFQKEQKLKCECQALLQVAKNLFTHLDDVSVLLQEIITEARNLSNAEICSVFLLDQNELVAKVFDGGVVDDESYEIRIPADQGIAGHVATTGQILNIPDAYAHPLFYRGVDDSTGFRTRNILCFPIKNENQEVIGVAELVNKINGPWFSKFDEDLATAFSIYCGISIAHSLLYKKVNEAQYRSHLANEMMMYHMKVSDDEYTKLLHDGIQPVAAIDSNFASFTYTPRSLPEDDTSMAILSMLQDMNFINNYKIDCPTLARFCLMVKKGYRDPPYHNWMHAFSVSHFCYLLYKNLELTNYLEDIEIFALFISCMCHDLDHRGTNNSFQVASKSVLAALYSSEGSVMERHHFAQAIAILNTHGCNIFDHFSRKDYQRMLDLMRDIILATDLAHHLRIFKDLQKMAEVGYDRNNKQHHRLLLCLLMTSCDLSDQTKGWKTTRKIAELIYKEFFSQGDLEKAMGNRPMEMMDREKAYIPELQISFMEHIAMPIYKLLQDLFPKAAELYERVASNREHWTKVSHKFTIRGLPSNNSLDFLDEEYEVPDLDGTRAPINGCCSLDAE
- assay method text: Evaluation of PDE2 phosphodiesterase inhibitory activity in vitro (fluorescence polarization, Transcreener AMP2/GMP2)
- conditions used: IC50 classes; substrate 1 μM cGMP; room temperature one hour

>  <compound>
Cn1cnc2c1c(=O)n(CCCCC(C)(O)C(F)(F)F)c(=O)n2C (stereo not shown) [Embodiment 1]

>  <subject of test>
recombinant full-length PDE2A protein (Homo sapiens)

>  <IC50>
10 to 50 µM

$$$$
>  <compound>
Cn1cnc2c1c(=O)n(CC1CCC(O)(C(F)(F)F)CC1)c(=O)n2C (single isomer, unassigned) [Embodiment 12 isomer 1]

>  <subject of test>
recombinant full-length PDE2A protein (Homo sapiens)

>  <IC50>
10 to 50 µM

$$$$
>  <compound>
Cn1cnc2c1c(=O)n(CC1CC(O)(C(F)(F)F)C1)c(=O)n2C (stereo not shown) [Embodiment 5]

>  <subject of test>
recombinant full-length PDE2A protein (Homo sapiens)

>  <IC50>
10 to 50 µM

$$$$
>  <compound>
Cc1sc(C(C)(O)C(F)(F)F)nc1Cn1c(=O)c2c(ncn2CC2CC2)n(C)c1=O (stereo not shown) [Embodiment 54]

>  <subject of test>
recombinant full-length PDE2A protein (Homo sapiens)

>  <IC50>
1 to 10 µM

$$$$
>  <compound>
Cn1c(=O)n(CC2CCC(O)(C(F)(F)F)CC2)c(=O)c2c1ncn2CC(F)(F)F (stereo not shown) [Embodiment 44]

>  <subject of test>
recombinant full-length PDE2A protein (Homo sapiens)

>  <IC50>
1 to 10 µM

$$$$
>  <compound>
Cn1cnc2c1c(=O)n(Cc1cc(C(O)(C(F)(F)F)C(F)(F)F)no1)c(=O)n2C [Embodiment 31]

>  <subject of test>
recombinant full-length PDE2A protein (Homo sapiens)

>  <IC50>
10 to 50 µM

$$$$
>  <compound>
Cn1cnc2c1c(=O)n(C[C@H]1CC[C@H](C(O)(C(F)(F)F)C(F)(F)F)CC1)c(=O)n2C [Embodiment 20]

>  <subject of test>
recombinant full-length PDE2A protein (Homo sapiens)

>  <IC50>
10 to 50 µM

$$$$
>  <compound>
CCC1(O)CCCC(CCn2c(=O)c3c(ncn3C)n(C)c2=O)C1 (stereo not shown) [Embodiment 22]

>  <subject of test>
recombinant full-length PDE2A protein (Homo sapiens)

>  <IC50>
1 to 10 µM

$$$$
>  <compound>
CCn1cnc2c1c(=O)n(CCCCC(O)(CC)CC)c(=O)n2C [Embodiment 42]

>  <subject of test>
recombinant full-length PDE2A protein (Homo sapiens)

>  <IC50>
1 to 10 µM

$$$$
>  <compound>
Cn1cnc2c1c(=O)n(CCC1CCC(O)(C(F)(F)F)CC1)c(=O)n2C (single isomer, unassigned) [Embodiment 15 isomer 1]

>  <subject of test>
recombinant full-length PDE2A protein (Homo sapiens)

>  <IC50>
1 to 10 µM

$$$$
>  <compound>
Cn1cnc2c1c(=O)n(Cc1ccc(C(C)(O)C(F)(F)F)nc1)c(=O)n2C (stereo not shown) [Embodiment 28]

>  <subject of test>
recombinant full-length PDE2A protein (Homo sapiens)

>  <IC50>
1 to 10 µM

$$$$
>  <compound>
Cn1c(=O)n(Cc2ccc(C(C)(O)C(F)(F)F)cn2)c(=O)c2c1ncn2CC1CC1 (stereo not shown) [Embodiment 56]

>  <subject of test>
recombinant full-length PDE2A protein (Homo sapiens)

>  <IC50>
10 to 50 µM

$$$$
>  <compound>
CCC(O)(CC)c1ccc(Cn2c(=O)c3c(ncn3C)n(C)c2=O)cc1 [Embodiment 25]

>  <subject of test>
recombinant full-length PDE2A protein (Homo sapiens)

>  <IC50>
1 to 10 µM

$$$$
>  <compound>
Cn1cnc2c1c(=O)n(C[C@H]1CC[C@H](C3(O)CC3)CC1)c(=O)n2C [Embodiment 21]

>  <subject of test>
recombinant full-length PDE2A protein (Homo sapiens)

>  <IC50>
10 to 50 µM

$$$$
>  <compound>
Cn1cnc2c1c(=O)n(CC1(C(C)(O)C(F)(F)F)CC1)c(=O)n2C (stereo not shown) [Embodiment 4]

>  <subject of test>
recombinant full-length PDE2A protein (Homo sapiens)

>  <IC50>
1 to 10 µM

$$$$
>  <compound>
CC(C)n1cnc2c1c(=O)n(CC1CCC(O)(C(F)(F)F)CC1)c(=O)n2C (stereo not shown) [Embodiment 48]

>  <subject of test>
recombinant full-length PDE2A protein (Homo sapiens)

>  <IC50>
10 to 50 µM

$$$$
>  <compound>
Cn1c(=O)n(CC2CCC(O)(C(F)(F)F)CC2)c(=O)c2c1ncn2CC1CC1 (stereo not shown) [Embodiment 49]

>  <subject of test>
recombinant full-length PDE2A protein (Homo sapiens)

>  <IC50>
1 to 10 µM

$$$$
>  <compound>
CC(C)Cn1cnc2c1c(=O)n(CC1CCC(O)(C(F)(F)F)CC1)c(=O)n2C (stereo not shown) [Embodiment 57]

>  <subject of test>
recombinant full-length PDE2A protein (Homo sapiens)

>  <IC50>
1 to 10 µM

$$$$
>  <compound>
Cn1cnc2c1c(=O)n(C[C@H]1CC[C@H](C(C)(O)C(F)(F)F)CC1)c(=O)n2C (stereo partly shown) [Embodiment 19]

>  <subject of test>
recombinant full-length PDE2A protein (Homo sapiens)

>  <IC50>
10 to 50 µM

$$$$
>  <compound>
Cn1cnc2c1c(=O)n(CCCCC1(O)CC1)c(=O)n2C [Embodiment 3]

>  <subject of test>
recombinant full-length PDE2A protein (Homo sapiens)

>  <IC50>
10 to 50 µM

$$$$
>  <compound>
Cn1c(=O)n(CC2CCC(O)(C(F)(F)F)CC2)c(=O)c2c1ncn2CC1CC1 (single isomer, unassigned) [Embodiment 50 isomer 2]

>  <subject of test>
recombinant full-length PDE2A protein (Homo sapiens)

>  <IC50>
< 1 µM

$$$$
>  <compound>
Cc1nc(C(C)(O)C(F)(F)F)sc1CCn1c(=O)c2c(ncn2C)n(C)c1=O (stereo not shown) [Embodiment 36]

>  <subject of test>
recombinant full-length PDE2A protein (Homo sapiens)

>  <IC50>
10 to 50 µM

$$$$
>  <compound>
Cn1c(=O)n(CC2CCC(C)(O)CC2)c(=O)c2c1ncn2CC1CC1 (single isomer, unassigned) [Embodiment 51 isomer 1]

>  <subject of test>
recombinant full-length PDE2A protein (Homo sapiens)

>  <IC50>
10 to 50 µM

$$$$
>  <compound>
Cn1cnc2c1c(=O)n(CC1CCC(O)(C(F)(F)F)CC1)c(=O)n2C (stereo not shown) [Embodiment 11]

>  <subject of test>
recombinant full-length PDE2A protein (Homo sapiens)

>  <IC50>
10 to 50 µM

$$$$
>  <compound>
Cc1sc(C(C)(O)C(F)(F)F)nc1Cn1c(=O)c2c(ncn2C)n(C)c1=O (stereo not shown) [Embodiment 34]

>  <subject of test>
recombinant full-length PDE2A protein (Homo sapiens)

>  <IC50>
10 to 50 µM

$$$$
>  <compound>
Cn1cnc2c1c(=O)n(Cc1cnc(C(C)(O)C(F)(F)F)s1)c(=O)n2C (stereo not shown) [Embodiment 35]

>  <subject of test>
recombinant full-length PDE2A protein (Homo sapiens)

>  <IC50>
10 to 50 µM

$$$$
>  <compound>
Cn1cnc2c1c(=O)n(CC1CCC(O)(C(F)(F)F)CC1)c(=O)n2C (single isomer, unassigned) [Embodiment 12 isomer 2]

>  <subject of test>
recombinant full-length PDE2A protein (Homo sapiens)

>  <IC50>
1 to 10 µM

$$$$
>  <compound>
Cn1c(=O)n(CC2CCC(O)(C(F)(F)F)CC2)c(=O)c2c1ncn2CC1CC1 (single isomer, unassigned) [Embodiment 50 isomer 1]

>  <subject of test>
recombinant full-length PDE2A protein (Homo sapiens)

>  <IC50>
10 to 50 µM

$$$$
>  <compound>
CCC(O)(CC)CCCCn1c(=O)c2c(ncn2C)n(C)c1=O [Embodiment 2]

>  <subject of test>
recombinant full-length PDE2A protein (Homo sapiens)

>  <IC50>
1 to 10 µM

$$$$
>  <compound>
Cn1cnc2c1c(=O)n(Cc1cccc(C(C)(O)C(F)(F)F)c1)c(=O)n2C (stereo not shown) [Embodiment 26]

>  <subject of test>
recombinant full-length PDE2A protein (Homo sapiens)

>  <IC50>
10 to 50 µM

$$$$
>  <compound>
Cn1c(=O)n(CCCCC(C)(O)C(F)(F)F)c(=O)c2c1ncn2C1CC1 (stereo not shown) [Embodiment 47]

>  <subject of test>
recombinant full-length PDE2A protein (Homo sapiens)

>  <IC50>
10 to 50 µM

$$$$
